Source of measurements: the Immune Epitope Database (IEDB)

# ASSAY SYSTEM: HLA-A*11:01
# ASSAY PROTOCOL: IEDB peptide-MHC binding, purified MHC/direct/fluorescence; filed as Kd, often an IC50 or EC50 that approximates it; bounds were set here for any values at or beyond the usual limits of such assays
# EXPERIMENTAL SETUP: source organism: Influenza A virus (A/Duck/Shantou/1881/00(H9N2))
pKd: −log10 of the molar value.
MEASURED PARAMETER: pKd

// sample `SLPPNFSSL` , its pKd was ≤ 4.70

====

# ASSAY SYSTEM: HLA-A*02:01
# ASSAY PROTOCOL: IEDB peptide-MHC binding, purified MHC/competitive/fluorescence; bounds were set here for any values at or beyond the usual limits of such assays
# EXPERIMENTAL SETUP: source organism: Vaccinia virus WR
pIC50: −log10 of the molar value.
MEASURED PARAMETER: pIC50

// worked examples, pIC50 included
[[record]]
seq = "GTLEFTPID"
observed_value = "≤ 3.88"

[[record]]
seq = "NGTLEFTPI"
observed_value = 4.96

[[record]]
seq = "LVSKFMSNG"
observed_value = "≤ 3.70"


Item `AFGLYKSIN` was tested on HLA-A*02:01; the reported pIC50 is ≤ 3.61
